assay: DRUGMATRIX: Interleukin IL-1 radioligand binding (ligand: [125I] interleukin 1beta); format: cell membranes, Membrane; details: nih3t3; Not Active = under 50% inhibition at 10 µM
parameter: Ki

Recorded Ki, per entry:
[
  {
    "molecule": "NNc1nncc2ccccc12 [HYDRALAZINE]",
    "Ki": "Not Active"
  },
  {
    "molecule": "COc1cc2nc(N3CCN(C(=O)C4CCCO4)CC3)nc(N)c2cc1OC (centres undefined)",
    "Ki": "Not Active"
  },
  {
    "molecule": "O=C1Nc2ccc(Cl)cc2C(c2ccccc2Cl)=NC1O (centres undefined)",
    "Ki": "Not Active"
  },
  {
    "molecule": "CC(=O)[C@@]1(O)CC[C@H]2[C@@H]3CCC4=CC(=O)CC[C@]4(C)[C@H]3CC[C@@]21C [HYDROXYPROGESTERONE]",
    "Ki": "Not Active"
  },
  {
    "molecule": "COC(=O)Nc1nc2ccc([S+]([O-])c3ccccc3)cc2[nH]1 (centres undefined)",
    "Ki": "Not Active"
  }
]

Give its Ki value. Item: Oc1cccc(O)c1O
Not Active
